target: Bcl-2-like protein 1 (Homo sapiens); assay: Inhibition of Bcl-XL
Sequence (Q07817 whole entry): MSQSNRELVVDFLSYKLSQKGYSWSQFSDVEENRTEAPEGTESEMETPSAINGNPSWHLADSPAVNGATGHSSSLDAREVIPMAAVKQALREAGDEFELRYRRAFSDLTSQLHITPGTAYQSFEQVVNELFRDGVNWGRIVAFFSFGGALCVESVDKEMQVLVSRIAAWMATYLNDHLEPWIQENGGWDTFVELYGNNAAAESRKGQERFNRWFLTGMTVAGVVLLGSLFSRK
pEC50: −log10 of the molar value.
Reported pEC50 values for the following compounds.

{"compound": "COC1(Cc2ccccc2C)CCN(c2ccc(C(=O)NS(=O)(=O)c3ccc(NC(CCN(C)C)CSc4ccccc4)c([N+](=O)[O-])c3)cc2)CC1 (centres undefined)", "system under test": "Bcl-2-like protein 1 (Homo sapiens)", "pEC50": 6.82}
{"compound": "COC1(Cc2ccccc2-c2ccccc2)CCN(c2ccc(C(=O)NS(=O)(=O)c3ccc(NC(CCN(C)C)CSc4ccccc4)c([N+](=O)[O-])c3)cc2)CC1 (centres undefined)", "system under test": "Bcl-2-like protein 1 (Homo sapiens)", "pEC50": 7.46}
{"compound": "COc1cccc(-c2ccccc2CN2CCN(c3ccc(C(=O)NS(=O)(=O)c4ccc(NC(CCN(C)C)CSc5ccccc5)c([N+](=O)[O-])c4)cc3)CC2)c1 (centres undefined)", "system under test": "Bcl-2-like protein 1 (Homo sapiens)", "pEC50": 6.42}
{"compound": "CN(C)CCC(CSc1ccccc1)Nc1ccc(S(=O)(=O)NC(=O)c2ccc(N3CCN(Cc4ccccc4)CC3)cc2)cc1[N+](=O)[O-] (centres undefined)", "system under test": "Bcl-2-like protein 1 (Homo sapiens)", "pEC50": 5.96}
